# assay.target: rat mGluR5 receptor (Rattus norvegicus, UniProt P31424)
# Sequence (P31424 21-1171 isoform P31424-2 limits assumed): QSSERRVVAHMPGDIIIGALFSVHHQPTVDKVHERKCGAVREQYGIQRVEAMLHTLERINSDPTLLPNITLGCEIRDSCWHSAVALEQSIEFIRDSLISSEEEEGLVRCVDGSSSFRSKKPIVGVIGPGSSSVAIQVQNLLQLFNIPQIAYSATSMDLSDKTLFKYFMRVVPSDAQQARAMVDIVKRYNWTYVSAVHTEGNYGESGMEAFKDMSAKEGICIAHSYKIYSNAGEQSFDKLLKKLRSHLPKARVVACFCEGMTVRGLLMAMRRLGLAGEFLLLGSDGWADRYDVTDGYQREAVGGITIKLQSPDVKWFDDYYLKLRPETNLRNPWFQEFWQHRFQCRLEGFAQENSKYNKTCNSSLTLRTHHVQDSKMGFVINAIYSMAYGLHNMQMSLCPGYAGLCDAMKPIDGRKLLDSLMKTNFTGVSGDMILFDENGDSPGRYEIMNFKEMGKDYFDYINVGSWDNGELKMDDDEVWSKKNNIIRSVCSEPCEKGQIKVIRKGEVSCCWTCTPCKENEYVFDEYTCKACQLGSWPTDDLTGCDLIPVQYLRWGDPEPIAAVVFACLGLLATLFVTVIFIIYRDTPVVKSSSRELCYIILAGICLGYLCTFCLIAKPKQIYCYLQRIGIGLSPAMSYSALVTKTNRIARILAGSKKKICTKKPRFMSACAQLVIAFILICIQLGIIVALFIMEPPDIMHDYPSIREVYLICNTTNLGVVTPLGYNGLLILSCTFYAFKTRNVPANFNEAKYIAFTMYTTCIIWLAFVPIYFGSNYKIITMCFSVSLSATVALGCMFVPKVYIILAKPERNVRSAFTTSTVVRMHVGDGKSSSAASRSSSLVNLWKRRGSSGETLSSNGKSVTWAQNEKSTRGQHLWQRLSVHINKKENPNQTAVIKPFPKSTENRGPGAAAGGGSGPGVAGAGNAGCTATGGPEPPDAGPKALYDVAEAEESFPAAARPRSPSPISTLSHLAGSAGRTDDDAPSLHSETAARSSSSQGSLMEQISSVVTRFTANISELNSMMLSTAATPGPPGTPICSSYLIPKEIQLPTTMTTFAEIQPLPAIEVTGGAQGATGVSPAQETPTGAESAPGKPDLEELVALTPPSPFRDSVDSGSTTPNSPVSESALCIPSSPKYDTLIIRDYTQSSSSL
# experiment: mGluR5 assay on HEK-expressing rat mGluR5 (fluorescent cell based Ca2+ mobilization assay)
# applied.conditions: HEK-293 cells stably expressing rat mGluR5; no co-addition of glutamate; mean of at least three independent experiments in duplicate; read-out: Ca++ Flux (mean EC50)
recorded.endpoint: EC50

[[record]]
compound = "O=C(c1ccc(F)cc1)N1CCC[C@H](c2nc(-c3ccc[nH]3)no2)C1"
recorded_endpoint = "EC50"
result = "< 1000 nM"

[[record]]
compound = "Cc1c[nH]c(-c2noc([C@H]3CCCN(C(=O)c4ccc(F)cc4)C3)n2)c1"
recorded_endpoint = "EC50"
result = "< 1000 nM"

[[record]]
compound = "O=C(c1ccc(F)c(F)c1)N1CCCC(c2noc(-c3ccn[nH]3)n2)C1 (stereo not shown)"
recorded_endpoint = "EC50"
result = "> 10000 nM"


Req: Query (compound): `O=C(c1ccnc(F)c1)N1CCC[C@H](c2noc(-c3cc(F)c[nH]3)n2)C1` ; field requested: EC50
Resp: < 1000 nM

Req: Give its EC50 value. Item: `O=C(c1ccc(F)nc1)N1CCC[C@H](c2noc(-c3cc(Cl)c[nH]3)n2)C1`
Resp: < 1000 nM

Req: Given the compound `O=C(c1ccc(F)nc1)N1CCC[C@H](c2noc(-c3cc(F)c[nH]3)n2)C1` , what is its reported EC50?
Resp: 1000 to 10000 nM

Req: # EC50 lookup, item `Cc1oncc1C(=O)N1CCC[C@H](c2nc(-c3cc(Cl)c[nH]3)no2)C1`
Resp: 1000 to 10000 nM

Req: So what does the record say about EC50 for `O=C(c1ccc(F)cc1)N1CCC[C@H](n2nnc(-c3ccc[nH]3)n2)C1` ?
Resp: < 1000 nM

* * *

# assay.target: rat mGluR5 receptor (Rattus norvegicus)
# Construct: expressed in transfected cells
# experiment: mGluR5 assay on HEK-expressing rat mGluR5 (fluorescent cell based Ca2+ mobilization assay)
# applied.conditions: HEK-293 cells stably expressing rat mGluR5; no co-addition of glutamate; mean of at least three independent experiments in duplicate; read-out: Ca++ Flux (mean EC50)
This section presents molecules with their documented EC50 values.

Use the examples below as a reference point.
[[record]]
molecule = "O=C(c1ccc(F)nc1)N1CCC[C@H](c2nc(-c3cc(Br)c[nH]3)no2)C1"
recorded_endpoint = "EC50"
result = "< 1000 nM"

[[record]]
molecule = "O=C(c1ccc(F)cc1)N1CCC[C@H](c2noc(-c3ccc[nH]3)n2)C1"
recorded_endpoint = "EC50"
result = "< 1000 nM"

[[record]]
molecule = "O=C(c1ccc(F)c(F)c1)N1CCCC(c2noc(-c3ccc[nH]3)n2)C1 (centres unmarked)"
recorded_endpoint = "EC50"
result = "< 1000 nM"


Req: Value lookup for EC50; key = `O=C(c1ccc(F)cc1)N1CCC[C@@H](c2nc(-c3ccc[nH]3)no2)C1`
Resp: 1000 to 10000 nM

Req: Quick one: EC50 for `Cc1c[nH]c(-c2noc([C@H]3CCCN(C(=O)c4cnoc4C)C3)n2)c1` ?
Resp: < 1000 nM

Req: Fill in: EC50 of `Cc1c[nH]c(-c2nc([C@H]3CCCN(C(=O)c4ccc(F)cc4)C3)no2)c1` is ___
Resp: < 1000 nM

Req: EC50 lookup needed for `Cc1ccc(-c2nc([C@H]3CCCN(C(=O)c4ccc(F)cc4)C3)no2)[nH]1` , thanks.
Resp: 1000 to 10000 nM

* * *

# assay.target: UniProt:P31424
# experiment: mGluR5 assay on HEK-expressing rat mGluR5 (fluorescent cell based Ca2+ mobilization assay)
# applied.conditions: HEK-293 cells stably expressing rat mGluR5; no co-addition of glutamate; mean of at least three independent experiments in duplicate; read-out: Ca++ Flux (mean EC50)
recorded.endpoint: EC50

Some molecules with recorded EC50:
[[record]]
molecule = "N#Cc1c[nH]c(-c2nc([C@H]3CCCN(C(=O)c4ccc(F)cc4)C3)no2)c1"
result = "1000 to 10000 nM"

[[record]]
molecule = "O=C(c1ccc(F)cc1)N1CCCC(c2noc(-c3ccc[nH]3)n2)C1 (stereo not shown)"
result = "< 1000 nM"

[[record]]
molecule = "O=C(c1ccncc1F)N1CCC[C@H](c2nc(-c3cc(Cl)c[nH]3)no2)C1"
result = "1000 to 10000 nM"


Moving on to another molecule below.
Req: Given `Cc1c[nH]c(-c2nc([C@H]3CCCN(C(=O)c4cnoc4C)C3)no2)c1` , state its recorded EC50.
Resp: < 1000 nM
